MEASUREMENT PROTOCOL: pharmacokinetic profiling in preterm rabbits
Assay type: in vivo
DETAILS: rabbit, ip; plasma, intraperitoneal 1 mg/kg
ASSAY METRIC: Tmax (min)

[[record]]
molecule = "CN(CCOc1ccc(CC2SC(=O)NC2=O)cc1)c1ccccn1 (stereo not shown) [RGZ, rosiglitazone]"
numeric_result = 15


====

MEASUREMENT PROTOCOL: pharmacokinetic profiling in preterm rabbits
Format: in vivo, rabbit
DETAILS: rabbit, inhaled or intranasal; lung, intratracheal 1 mg/kg
ASSAY METRIC: Cmax

[[record]]
compound = "CN(CCOc1ccc(CC2SC(=O)NC2=O)cc1)c1ccccn1 (stereo not shown)"
assay_metric = "Cmax"
result = "1070 ng/g"


====

MEASUREMENT PROTOCOL: pharmacokinetic profiling in preterm rabbits
Assay type: in vivo, rabbit
DETAILS: rabbit, ip; plasma, intraperitoneal 1 mg/kg
ASSAY METRIC: AUC(0-t) (ng·h/mL)

[[record]]
compound = "CN(CCOc1ccc(CC2SC(=O)NC2=O)cc1)c1ccccn1 (stereo not shown)"
assay_metric = "AUC(0-t)"
numeric_result = 29500


====

MEASUREMENT PROTOCOL: pharmacokinetic profiling in preterm rabbits
Format: in vivo
DETAILS: rabbit, inhaled or intranasal; plasma, intratracheal 1 mg/kg
ASSAY METRIC: Tmax

[[record]]
compound = "CN(CCOc1ccc(CC2SC(=O)NC2=O)cc1)c1ccccn1 (stereo not shown)"
result = "15 min"


====

MEASUREMENT PROTOCOL: pharmacokinetic profiling in preterm rabbits
Type: in vivo
DETAILS: rabbit, inhaled or intranasal; plasma, intratracheal 1 mg/kg
Protocol: A total of 30 preterm rabbits with a GA of 28 days were featured in the pharmacokinetic study. […] Bioanalysis and quantification were performed using a fit-for-purpose LC/MS/MS method developed internally (LC and MS conditions already described in Section 2.2). […] Pharmacokinetic parameters were calculated by non-compartmental analysis using Phoenix WinNonlin (Certara L.P., Princeton, NJ, USA). […]
ASSAY METRIC: AUC(0-t) (ng·h/mL)

[[record]]
compound = "CN(CCOc1ccc(CC2SC(=O)NC2=O)cc1)c1ccccn1 (stereo not shown)"
assay_metric = "AUC(0-t)"
unit_descriptor = "ng·h/mL"
numeric_result = 25800


====

Parameter Papp B→A at 2 h, 10 µM: see the listing below.
MEASUREMENT PROTOCOL: Caco-2 permeability assay
Format: in vitro ADME
DETAILS: human, Caco-2, pH 7.4, with Elacridar (GF120918), concentration not given; basolateral to apical, with Elacridar; read-out: Papp with Pgp Inhibitor (B–A) (converted)
ASSAY METRIC: Papp B→A at 2 h, 10 µM (×10⁻⁶ cm/s)

[[record]]
molecule = "CN(CCOc1ccc(CC2SC(=O)NC2=O)cc1)c1ccccn1 (centres unmarked) [RGZ, rosiglitazone]"
numeric_result = 11.4

[[record]]
molecule = "CCc1ccc(CCOc2ccc(CC3SC(=O)NC3=O)cc2)nc1 (centres unmarked) [PGZ, pioglitazone]"
numeric_result = 25.4


====

MEASUREMENT PROTOCOL: pharmacokinetic profiling in preterm rabbits
Type: in vivo, rabbit
DETAILS: rabbit, inhaled or intranasal; lung, intratracheal 1 mg/kg
ASSAY METRIC: Tmax (min)

[[record]]
compound = "CN(CCOc1ccc(CC2SC(=O)NC2=O)cc1)c1ccccn1 (stereo not shown) [RGZ, rosiglitazone]"
numeric_result = 15


Reference source for all entries: paper PMC9320886
